These data points were gathered from ChEMBL document CHEMBL5236558.

I'd be grateful if you could share measured pIC50 for these entries.
Target: Phosphatidylinositol 4,5-bisphosphate 3-kinase catalytic subunit delta isoform (Homo sapiens)
Sequence (O00329 whole entry): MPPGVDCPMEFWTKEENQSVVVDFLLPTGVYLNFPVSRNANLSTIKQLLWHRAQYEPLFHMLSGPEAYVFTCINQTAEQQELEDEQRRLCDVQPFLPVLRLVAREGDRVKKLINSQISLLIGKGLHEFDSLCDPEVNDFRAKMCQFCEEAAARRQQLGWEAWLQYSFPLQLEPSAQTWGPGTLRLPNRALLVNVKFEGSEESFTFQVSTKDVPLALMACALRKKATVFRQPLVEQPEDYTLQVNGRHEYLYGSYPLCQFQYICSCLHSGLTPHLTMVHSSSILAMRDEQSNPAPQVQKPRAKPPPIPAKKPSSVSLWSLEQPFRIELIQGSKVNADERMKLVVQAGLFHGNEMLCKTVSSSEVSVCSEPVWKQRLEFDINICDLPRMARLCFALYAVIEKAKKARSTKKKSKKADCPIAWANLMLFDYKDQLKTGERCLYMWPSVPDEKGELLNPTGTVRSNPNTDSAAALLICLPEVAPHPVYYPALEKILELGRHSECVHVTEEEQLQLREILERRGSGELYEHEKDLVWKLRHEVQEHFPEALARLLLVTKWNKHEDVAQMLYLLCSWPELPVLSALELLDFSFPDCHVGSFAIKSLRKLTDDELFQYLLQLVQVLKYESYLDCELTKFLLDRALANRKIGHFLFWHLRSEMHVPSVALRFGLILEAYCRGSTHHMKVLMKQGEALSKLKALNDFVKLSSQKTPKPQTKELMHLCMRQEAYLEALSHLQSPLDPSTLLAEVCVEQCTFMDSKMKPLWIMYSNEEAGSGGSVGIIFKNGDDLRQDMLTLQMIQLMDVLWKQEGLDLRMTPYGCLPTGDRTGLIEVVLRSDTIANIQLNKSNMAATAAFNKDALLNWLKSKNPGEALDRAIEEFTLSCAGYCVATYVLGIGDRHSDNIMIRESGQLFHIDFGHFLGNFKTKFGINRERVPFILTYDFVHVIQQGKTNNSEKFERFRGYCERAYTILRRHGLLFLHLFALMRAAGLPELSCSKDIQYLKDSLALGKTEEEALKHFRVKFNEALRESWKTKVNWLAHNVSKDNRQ
Experiment: Inhibition of PI3Kdelta (unknown origin)
Give bare numbers, as −log10 of the molar value.

Query: For `Cc1nc2c(N)cc(N3CCOCC3)nn2c1Cc1cccc(F)c1C1CCNCC1` , what is its reported pIC50?
Result: 6.43

// moving on: another record for pIC50
Query: For `COc1ccc(-c2ccc3nc(C)c(-c4cnc(N)c(C(F)(F)F)c4)n3n2)cc1OC` , what is its reported pIC50?
Result: 7.15

* * *

Assay: Induction of circadian rhythm signaling pathway in rat fibroblast cells assessed as prolongation of circadian period upto 1 hr by scintillation counter analysis
Format: functional, cell-based
endpoint: pEC50
Answers are plain numbers, as −log10 of the molar value.

Some compounds with recorded pEC50:
Query: For `CN1CCN(c2ccc3nc(-c4ccc(F)cc4)c(-c4ccncc4)n3n2)CC1` , what is its reported pEC50?
Result: 7.55

Query: For `Cc1nc2ccc(N3CCNCC3)nn2c1-c1ccncc1` , what is its reported pEC50?
Result: 7.70

// moving on: another record for pEC50
Query: For `CC(C)N1CCN(c2ccc3nc(-c4ccnc(F)c4)c(-c4ccncc4)n3n2)CC1` , what is its reported pEC50?
Result: 8.22
